biological target: Tyrosine-protein kinase ITK/TSK (Homo sapiens); conditions: at 0.1 µM;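 note: mean percent inhibition of ITK from the GSK PKIS screen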
PARAMETER MEASURED: inhibition (%)
Reply numerically in %, unit not repeated.

MOLECULE	SYSTEM NAME	inhibition [%]
COc1cccc(/C=N/Nc2ncnc3c2cnn3-c2cccc(OC)c2)c1	Tyrosine-protein kinase ITK/TSK (Homo sapiens)	0.35
Fc1ccc(-c2c(-c3ccncc3)nc3n2CCS3)cc1	Tyrosine-protein kinase ITK/TSK (Homo sapiens)	-2.9
COc1cccc(-n2cnc3c(N/N=C/c4ccncc4)ncnc32)c1	Tyrosine-protein kinase ITK/TSK (Homo sapiens)	-2.76
O=C(Nc1n[nH]c2cc(-c3cc(F)ccc3F)ccc12)C1CC1	Tyrosine-protein kinase ITK/TSK (Homo sapiens)	2.16

Look up inhibition with Tyrosine-protein kinase ITK/TSK (Homo sapiens) for this molecule: `CCc1ccc(Oc2nccc(-c3c(-c4ccc(F)cc4)ncn3C3CCNCC3)n2)cc1`
2.08

Look up inhibition with Tyrosine-protein kinase ITK/TSK (Homo sapiens) for this molecule: `NS(=O)(=O)c1ccc(N/N=C2\C(=O)Nc3ccc(C(=O)NCCCn4ccnc4)cc32)cc1`
1.19

Look up inhibition with Tyrosine-protein kinase ITK/TSK (Homo sapiens) for this molecule: `Fc1ccc(-c2ncn(C3CCNCC3)c2-c2ccnc(Oc3ccc(F)c(F)c3)n2)cc1`
-3.95

Look up inhibition with Tyrosine-protein kinase ITK/TSK (Homo sapiens) for this molecule: Nc1nccc(-c2c(-c3ccc(F)cc3)ncn2C2CCC(O)CC2)n1 (configuration not stated)
-0.36

Look up inhibition with Tyrosine-protein kinase ITK/TSK (Homo sapiens) for this molecule: `C[C@@H](Oc1cc(-n2cnc3ccc(OCC4CCN(C)CC4)cc32)sc1C(N)=O)c1ccccc1Cl`
2.76

Look up inhibition with Tyrosine-protein kinase ITK/TSK (Homo sapiens) for this molecule: `O=C(Nc1n[nH]c2nc(-c3ccco3)ccc12)C1CC1`
1.08

Look up inhibition with Tyrosine-protein kinase ITK/TSK (Homo sapiens) for this molecule: `C[C@@H](Oc1cc(-n2cnc3ccc(OC4CCN(C)CC4)cc32)sc1C(N)=O)c1ccccc1Cl`
-2.4

Look up inhibition with Tyrosine-protein kinase ITK/TSK (Homo sapiens) for this molecule: `O=C1Nc2ccc(I)cc2C1=Cc1cc(Br)c(O)c(Br)c1`
1.48

Look up inhibition with Tyrosine-protein kinase ITK/TSK (Homo sapiens) for this molecule: `Clc1ccc(CNc2nccc(-c3cnn4ncccc34)n2)cc1`
0

Look up inhibition with Tyrosine-protein kinase ITK/TSK (Homo sapiens) for this molecule: `O=C1Nc2ccccc2/C1=C/Nc1ccc(-n2cncn2)cc1`
1.26

Look up inhibition with Tyrosine-protein kinase ITK/TSK (Homo sapiens) for this molecule: `CCc1cccc(CC)c1/C=C/c1cncc(C(=O)NC)c1`
0.83

Look up inhibition with Tyrosine-protein kinase ITK/TSK (Homo sapiens) for this molecule: `COc1cc(Nc2ncc(-c3ccccc3)o2)cc(OC)c1OC`
-0.21

Look up inhibition with Tyrosine-protein kinase ITK/TSK (Homo sapiens) for this molecule: `C/C(Nc1ccc(S(N)(=O)=O)cc1)=C1/C(=O)Nc2ccccc21`
-0.1

* * *

Parameter: inhibition. Scope: all listed entries.
target: Ephrin type-A receptor 4 (Homo sapiens); conditions: at 1 µM
Description: GSK_PKIS: EPHA4 mean inhibition at 1 uM [Nanosyn]
Reply numerically in %, unit not repeated.

For orientation, consider the following solved cases.
NC(=O)Cc1ccccc1Oc1nccc(-c2c(-c3ccc(F)cc3)ncn2C2CCNCC2)n1 -0.14
CN(C)c1ccc2c(c1)/C(=C/Nc1ccc(S(N)(=O)=O)cc1)C(=O)N2 1.13

Record request: inhibition value, item `Fc1ccc(-c2ncn(C3CCNCC3)c2-c2ccnc(Oc3ccc4c(c3)OCO4)n2)cc1`
15.4

Record request: inhibition value, item `COc1cccc(/C=N/Nc2ncnc3c2cnn3-c2cccc(OC)c2)c1`
9.69

All values here come from ChEMBL document CHEMBL1961873.
